Target: Melanin-concentrating hormone receptor 1 (Homo sapiens, UniProt Q99705)
Sequence (Q99705 whole entry): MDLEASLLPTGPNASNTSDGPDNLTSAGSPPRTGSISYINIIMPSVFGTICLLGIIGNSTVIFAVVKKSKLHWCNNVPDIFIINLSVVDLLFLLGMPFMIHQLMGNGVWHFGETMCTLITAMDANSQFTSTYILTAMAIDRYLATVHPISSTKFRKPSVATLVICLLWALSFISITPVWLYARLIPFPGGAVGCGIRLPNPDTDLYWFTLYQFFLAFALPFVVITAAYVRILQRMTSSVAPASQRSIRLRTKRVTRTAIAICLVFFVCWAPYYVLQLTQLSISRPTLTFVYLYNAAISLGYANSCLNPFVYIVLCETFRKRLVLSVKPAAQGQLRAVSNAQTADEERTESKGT
pKi: −log10 of the molar value.
We use 7 as the dividing line for pKi: on or above the line is class 1, below is class 0.

Ask: Has COc1cc(OC)cc(C(=O)N(C)C2CCN(Cc3ccc4ccccc4c3)CC2)c1 a recorded pKi greater than or equal to 7?
Result: class 0

Ask: # iterate: O=C(NC1CCN(Cc2ccc3ccccc3c2)CC1)c1cc(F)c(F)c(F)c1
Result: class 1

Ask: Now consider O=C(NC1CCN(Cc2ccc3ccccc3c2)CC1)c1ccc(F)c(F)c1 and answer again.
Result: class 1

Ask: Here is the next molecule: COc1cc(OC)cc(C(=O)NC2CCN(C(C)c3ccc4ccccc4c3)CC2)c1 (centres undefined)
Result: class 1

Ask: Cool, now COc1cc(OC)cc(C(=O)NC2CCN(Cc3ccc(Cl)c(Cl)c3)CC2)c1
Result: class 0

Ask: Likewise for COc1cc(C(=O)NC2CCN(Cc3ccc4ccccc4c3)CC2)cc(OC)c1OC ?
Result: class 0

Ask: Can you handle COc1cc(OC)cc(C(=O)N[C@@H]2CCN(Cc3ccccc3)C2)c1 next?
Result: class 0

Ask: Queued: O=C(NC1CCN(Cc2ccc3ccccc3c2)CC1)c1cccc(O)c1
Result: class 0

Ask: Note, next up: COc1cc(OC)cc(C(=O)NC2CCCN(Cc3ccc4ccccc4c3)C2)c1 (centres undefined)
Result: class 0

Ask: Again, but for COc1cc(OC)cc(C(=O)NC2CC(C)(C)N(Cc3ccc4ccccc4c3)C(C)(C)C2)c1
Result: class 0

Ask: And COc1cc(OC)cc(C(=O)NC2CCN(Cc3ccc4cc(F)ccc4c3)CC2)c1 ?
Result: class 1

Ask: Ok, now COc1cccc(C(=O)NC2CCN(Cc3ccc4ccccc4c3)CC2)c1
Result: class 1

Ask: Please do the same for O=C(NCc1ccc(F)c(F)c1)[C@H]1[C@@H]2CN(Cc3ccc4ccccc4c3)C[C@@H]21 as well.
Result: class 1

Ask: Proceed to COc1cc(OC)cc(C(=O)NC2CCN(Cc3ccccc3)CC2)c1
Result: class 0

###

Target: Melanin-concentrating hormone receptor 1 (Homo sapiens)
Assay: Inhibition of MCH-mediated calcium release by CHO cells expressing human MCH-R1
Provide the recorded IC50 for the entries that follow.
State just the number; it will be interpreted in nM.

Ask: For the compound shown here, COc1cc(OC)cc(C(=O)N[C@@H]2CCN(Cc3ccc4ccccc4c3)C2)c1 , give the reported IC50.
Result: 18

Ask: # repeat for O=C(NC1CCN(Cc2ccc3ccccc3c2)CC1)c1ccc(F)c(F)c1
Result: 52

Ask: Input COc1cc(OC)cc(C(=O)N[C@@H]2CCN(C/C=C/c3ccccc3)C2)c1
Result: 42

Ask: Follow-up item: O=C(NC1CCN(Cc2ccc3ccccc3c2)CC1)c1ccccc1
Result: 948

Ask: Field entry: O=C(NC1CCN(Cc2ccc3cc(F)ccc3c2)CC1)c1ccccc1
Result: 109

Ask: How about COc1cc(OC)cc(C(=O)NC2CCN(Cc3ccc4ccccc4c3)CC2)c1 ?
Result: 62

###

Values of pKi reported for Melanin-concentrating hormone receptor 1 (Homo sapiens) appear below.
Just so you know, pKi here is -log10 of the concentration in molar units; reply with that number alone.

Ask: pKi lookup needed for O=C(NC1CCN(Cc2ccc3ccccc3c2)CC1)c1cc(F)cc(F)c1 , thanks.
Result: 7.19

Ask: Would you kindly repeat that for COc1cc(OC)cc(C(=O)NC2CCN(CC3CCc4ccccc4C3)CC2)c1 (stereo not given) ?
Result: 6.87

Ask: Proceed to COc1cc(OC)cc(C(=O)NC2CCN(Cc3cc4ccccc4n3C)CC2)c1
Result: 6.85

Ask: Note, next up: COc1cc(C(=O)N[C@@H]2CCN(Cc3ccc4ccccc4c3)C2)ccc1F
Result: 7.21

Ask: Continue with CN(C)c1cccc(C(=O)NC2CCN(Cc3ccc4ccccc4c3)CC2)c1
Result: 6.90
